This collection of values is drawn from PubChem BioAssay (NCI).

- Tested on: DU-145 prostate
- assay: NCI tumour cell line growth inhibition, 48 h
assayEndpoint: TGI (µM)
Report the value in µM with no unit label.

Take a look at these entries with their results.
molecule: CCC/C(=N\NC(=S)N1CC2CCC(CC2)C1)c1ccccn1
assayEndpoint: TGI
endpointValue: 2.82
//
molecule: C[As](C)SCC(COC(=O)C(Cl)c1ccccc1)OC(=O)C(Cl)c1ccccc1 (centres undefined)
assayEndpoint: TGI
endpointValue: 16.9
//
molecule: CC(C)=CC(Cc1ccccc1)S(=O)(=O)c1nc2ccccc2s1 (centres undefined)
assayEndpoint: TGI
endpointValue: 31.5
//
molecule: O=C(NCCCO)c1cc(Cl)ccc1O
assayEndpoint: TGI
endpointValue: 16.1
//
molecule: C/C=C(\C)C(O)C(C)C(O)C/C=C(C)/C=C(\C)C/C(C)=C/C/C=C(\C)C(O)C(C)c1ccc(CCC)c(=O)o1 (centres undefined)
assayEndpoint: TGI
endpointValue: 91.7

Now consider the entry below.
Consider the molecule O=Nc1ccc(NO)c2ccccc12 and give its measured TGI.
31.5

* * *

- System: RXF 393 renal
- assay: NCI tumour cell line growth inhibition, 48 h
Listed here: items and their measured TGI.

compound: N#CC(Cc1ccccc1)N(CCC1=CCCCC1)Cc1ccccc1 (stereo not given)
TGI: > 100 µM
--
compound: COC(=O)c1cc(O)c2cc3c(cc2c1-c1cc(OC)c(OC)c(OC)c1)OCO3
TGI: > 100 µM
--
compound: CC(C)=CC(Cc1ccccc1)S(=O)(=O)c1nc2ccccc2s1 (stereo not given)
TGI: 41.9 µM

Tell me the measured TGI of CC(=O)O[C@H]1CC[C@@]2(C)C(=CC[C@@H]3[C@@H]2CC[C@]2(C)c4c(C)nn(-c5ccccc5)c4C[C@@H]32)C1 , please.
19.3 µM

Name the reported TGI value associated with the compound COc1ccccc1-c1cc(=O)c2cc3c(cc2[nH]1)OCO3
56.2 µM

* * *

- System: NCI-H23 lung
- assay: NCI tumour cell line growth inhibition, 48 h
assayEndpoint: TGI

# annotated cases, reported TGI shown
compound: Cc1cccc(C)c1NC(=O)C1C(=O)N(c2c(C)cccc2C)C(=O)/C1=N\N (stereo unspecified)
systemUnderTest: NCI-H23 lung
TGI: > 100 µM
--
compound: Clc1ccc(-c2c3c(nn2-c2ccccn2)CCc2ccccc2-3)cc1Cl
systemUnderTest: NCI-H23 lung
TGI: > 100 µM
--
compound: COc1cc(NCCC2CCCCN2)c2ncccc2c1 (stereo unspecified)
systemUnderTest: NCI-H23 lung
TGI: > 100 µM
--
compound: CC(C)([NH-])CO.CC(C)([NH-])CO.[Cl][Cd][Cl]
systemUnderTest: NCI-H23 lung
TGI: 28.4 µM
--
compound: Cc1cccc2c1c(=O)c1c(O)c3c(cc1n2C)OC(C)(C)C=C3
systemUnderTest: NCI-H23 lung
TGI: > 10 µM

// next item, TGI requested
Request the reported TGI associated with COC(O)C(=O)c1ccc2c(c1)CC1(C2)Cc2cc3c(cc2C1=O)CCC3 (stereo unspecified)
56.2 µM

* * *

- System: K-562 leukemia
- assay: NCI tumour cell line growth inhibition, 48 h; in the data active = GI50 below about 0.43 µM; inactive = the rest
Thanks in advance; please answer with one of these: 1 = active, 0 = inactive

Answered examples (3):
compound: CC(=O)C1=C(O)C=C2Oc3c(C(=O)/C=C/c4c(Cl)cccc4Cl)c(O)c(C)c(O)c3[C@]2(C)C1=O
category: 0
//
compound: N=c1ccn(O)cc1/C=C1/C(=O)Nc2ccccc21
category: 0
//
compound: COc1cc(C2SCC(=O)N2c2ncc(C)s2)cc(OC)c1OC (stereo not given)
category: 0

Read the next record carefully.
What outcome does the record of this test show for CO/N=C(\C)c1ccc(Nc2cc(-c3ccccc3)nc3ccc(OC)cc23)cc1 ?
0
